MEASUREMENT_DESCRIPTION: Sorption-desorption isotherms, VTI humidity balance
Assay type: physicochemical
MEASUREMENT_SETUP: Sample RH % 85; in % (unit assumed)
Where a name gives a salt, the structure may show the parent alone.
MEASURED_PARAMETER: Desorption

Completed entries (count: 2):
[[record]]
compound = "Cc1[nH]c2ccccc2c1CCNCc1ccc(/C=C/C(=O)NO)cc1 [Form A of the maleate salt]"
measured_parameter = "Desorption"
result = 0.19

[[record]]
compound = "Cc1[nH]c2ccccc2c1CCNCc1ccc(/C=C/C(=O)NO)cc1 [Form A of the mesylate salt]"
measured_parameter = "Desorption"
result = 0.33


Per the record, Cc1[nH]c2ccccc2c1CCNCc1ccc(/C=C/C(=O)NO)cc1 [Free Base] has Desorption of 5.33

Per the record, Cc1[nH]c2ccccc2c1CCNCc1ccc(/C=C/C(=O)NO)cc1 [Form A of the L-tartarate salt] has Desorption of 0.42
